# System: metabolism of retinoic acid in human breast cancer cells
# Protocol Description: Inhibition of retinoic acid (RA) metabolism (Example C.1)
# Assay type: cell-based
# Cond: MCF-7 human breast cancer cells, 3H-RA as substrate; concentration needed to reduce the amount of metabolites to 50% of the control
# Procedure: The property to delay the metabolism of retinoic acid can be evidenced in various in vitro and in vivo experiments. […] MCF-7 human breast cancer cells were grown as stock cultures according to art-known protocols. […] The fraction containing the polar ^3H-labelled metabolites was collected and counted in a scintillation counter. […]
Reported Property: IC50 (nM)

Some compounds with known IC50 results, for comparison:
CCC(CC)C(c1ccc(NC(=O)COc2ccccc2O)cc1)n1ccnc1 (racemic)	0.433
CCC(CC)C(c1ccc(NC(=O)Cc2cc(OC)ccc2OC)cc1)n1ccnc1 (racemic)	1.64
CC(C)C(c1ccc(NC(=O)CSCc2ccccc2)cc1)n1ccnc1 (racemic)	29
CC(C)C(c1ccc(NC(=O)C2CCCO2)cc1)n1ccnc1 (racemic)	14.1
CCC(CC)C(c1ccc(NC(=O)Cc2ccc3nc(N)sc3c2)cc1)n1cncn1 (centres unmarked)	0.0357

I = CCCC(CCC)C(c1ccc(NC(=O)Cc2ccc(OC)c(OC)c2)cc1)n1cncn1 (racemic)
II = C/C(=C\c1ccccc1)C(=O)Nc1ccc(C(c2ccc3c(c2)C(C)(C)CCC3(C)C)n2ccnc2)cc1 (racemic)
Q: Please indicate which entry, I or II , has the lower recorded IC50 value. Return value: the label identifying the chosen record.
Result: I
(I: 0.296 nM, II: 1.84 nM)

---

# System: metabolism of retinoic acid in human breast cancer cells
# Protocol Description: Inhibition of retinoic acid (RA) metabolism (Example C.1)
# Type: cell-based
# Cond: MCF-7 human breast cancer cells, 3H-RA as substrate; concentration needed to reduce the amount of metabolites to 50% of the control
Reported Property: IC50 (nM)

In the examples that follow, each entry is paired with its recorded IC50.
CCC(CC)C(c1ccc(NC(=O)Cc2ccc(OC(C)C)cc2)cc1)n1ccnc1 (racemic)	2.21
Cc1cccc(NC(=O)Nc2ccc(C(C(C)C)n3ccnc3)cc2)c1 (racemic)	7.45
CC(C)C(c1ccc(NC(=O)c2cnc3ccccc3c2)cc1)n1ccnc1 (racemic)	2.59

a = COc1ccc(CC(=O)Nc2ccc(C(C(C)N(C)C)n3ccnc3)cc2)cc1C (single isomer, unassigned)
b = CCCCC(=CC(=O)Nc1ccc(C(c2ccc(Cl)cc2)n2ccnc2)cc1)c1ccccc1 (racemic)
c = CC(C)C(c1ccc(NC(=O)c2ccc3ccccc3n2)cc1)n1ccnc1 (racemic)
d = CCCC(CCC)C(c1ccc(NC(=O)Cc2ccc(OC)c(OC)c2)cc1)n1ccnc1 (racemic)
Q: Reorder: IC50, max to min. Record the ranking as a list of labels in the requested order.
Result: b, c, d, a
(b: 860 nM, c: 36 nM, d: 1.74 nM, a: 0.02 nM)

---

# System: metabolism of retinoic acid in human breast cancer cells
# Protocol Description: Inhibition of retinoic acid (RA) metabolism (Example C.1)
# Assay type: cell-based
# Cond: MCF-7 human breast cancer cells, 3H-RA as substrate; concentration needed to reduce the amount of metabolites to 50% of the control
Reported Property: IC50 (nM)

CC(C)C(c1ccc(NC(=O)N(C)Cc2ccccc2)cc1)n1ccnc1 (racemic)	4.66

A = C/C(=C\c1ccnc2ccccc12)C(=O)Nc1ccc(C(C(C)C)n2ccnc2)cc1 (racemic)
B = C/C(C(=O)Nc1ccc(C(C(C)C)n2ccnc2)cc1)=C(/C)c1ccccc1 (racemic)
Q: Identify the item whose IC50 is the smaller number: A or B Write the label of whichever entry you select.
Result: A
(A: 4.15 nM, B: 18.7 nM)
